Origin of values: patent US20210163545A1

- ASSAY TARGET: Fab
- TEST: static binding capacity for Fab after 0.1 M NaOH for 24 h, relative to SBC of the same particles without alkali treatment
OBSERVATION TYPE: SBC retention ratio (%) after alkali treatment
Enter your answer as a number in %; do not include the unit.

The binder identified as Recombinant immunoglobulin κ chain binding protein KBP3 (protein) KETPETPEEPKEEVTIKVNLIFADGKTQTATFKGRFEEATAEAYRYADLLAKVNGEYTADLEDGGYTINIKFAGKKETPETPEEPKEEVTIKVNLIFADGKTQTATFKGRFEEATAEAYRYADLLAKVNGEYTADLEDGGYTINIKFAGKKETPETPEEPKEEVTIKVNLIFADGKTQTATFKGRFEEATAEAYRYADLLAKVNGEYTADLEDGGYTINIKFAGKKETPETPEEPKEEVTIKVNLIFADGKTQTATFKGRFEEATAEAYRYADLLAKVNGEYTADLEDGGYTINIKFAGK registered its SBC retention ratio (%) after alkali treatment at 48
